System tested: Stat1tc, phosphorylated Tyr701 (Homo sapiens)
Experiment notes: EMSA
Study conditions: apparent Keq, dimer; 40 mM KCl, 10 mM MgCl2, 10 mM CaCl2, RT
Reported property: Kd (nM)
Numbers only, in nM.

Input: Reported Kd for Stat1tc, phosphorylated Tyr701 (Homo sapiens), given GTATTCCCGTCAATGCA (double strand) [cfosWT] ?
Output: 1
